assay.system: LRRK2 phospho-Ser935 (Homo sapiens, UniProt Q5S007)
Construct: expressed in transfected cells
Sequence (Q5S007 whole entry): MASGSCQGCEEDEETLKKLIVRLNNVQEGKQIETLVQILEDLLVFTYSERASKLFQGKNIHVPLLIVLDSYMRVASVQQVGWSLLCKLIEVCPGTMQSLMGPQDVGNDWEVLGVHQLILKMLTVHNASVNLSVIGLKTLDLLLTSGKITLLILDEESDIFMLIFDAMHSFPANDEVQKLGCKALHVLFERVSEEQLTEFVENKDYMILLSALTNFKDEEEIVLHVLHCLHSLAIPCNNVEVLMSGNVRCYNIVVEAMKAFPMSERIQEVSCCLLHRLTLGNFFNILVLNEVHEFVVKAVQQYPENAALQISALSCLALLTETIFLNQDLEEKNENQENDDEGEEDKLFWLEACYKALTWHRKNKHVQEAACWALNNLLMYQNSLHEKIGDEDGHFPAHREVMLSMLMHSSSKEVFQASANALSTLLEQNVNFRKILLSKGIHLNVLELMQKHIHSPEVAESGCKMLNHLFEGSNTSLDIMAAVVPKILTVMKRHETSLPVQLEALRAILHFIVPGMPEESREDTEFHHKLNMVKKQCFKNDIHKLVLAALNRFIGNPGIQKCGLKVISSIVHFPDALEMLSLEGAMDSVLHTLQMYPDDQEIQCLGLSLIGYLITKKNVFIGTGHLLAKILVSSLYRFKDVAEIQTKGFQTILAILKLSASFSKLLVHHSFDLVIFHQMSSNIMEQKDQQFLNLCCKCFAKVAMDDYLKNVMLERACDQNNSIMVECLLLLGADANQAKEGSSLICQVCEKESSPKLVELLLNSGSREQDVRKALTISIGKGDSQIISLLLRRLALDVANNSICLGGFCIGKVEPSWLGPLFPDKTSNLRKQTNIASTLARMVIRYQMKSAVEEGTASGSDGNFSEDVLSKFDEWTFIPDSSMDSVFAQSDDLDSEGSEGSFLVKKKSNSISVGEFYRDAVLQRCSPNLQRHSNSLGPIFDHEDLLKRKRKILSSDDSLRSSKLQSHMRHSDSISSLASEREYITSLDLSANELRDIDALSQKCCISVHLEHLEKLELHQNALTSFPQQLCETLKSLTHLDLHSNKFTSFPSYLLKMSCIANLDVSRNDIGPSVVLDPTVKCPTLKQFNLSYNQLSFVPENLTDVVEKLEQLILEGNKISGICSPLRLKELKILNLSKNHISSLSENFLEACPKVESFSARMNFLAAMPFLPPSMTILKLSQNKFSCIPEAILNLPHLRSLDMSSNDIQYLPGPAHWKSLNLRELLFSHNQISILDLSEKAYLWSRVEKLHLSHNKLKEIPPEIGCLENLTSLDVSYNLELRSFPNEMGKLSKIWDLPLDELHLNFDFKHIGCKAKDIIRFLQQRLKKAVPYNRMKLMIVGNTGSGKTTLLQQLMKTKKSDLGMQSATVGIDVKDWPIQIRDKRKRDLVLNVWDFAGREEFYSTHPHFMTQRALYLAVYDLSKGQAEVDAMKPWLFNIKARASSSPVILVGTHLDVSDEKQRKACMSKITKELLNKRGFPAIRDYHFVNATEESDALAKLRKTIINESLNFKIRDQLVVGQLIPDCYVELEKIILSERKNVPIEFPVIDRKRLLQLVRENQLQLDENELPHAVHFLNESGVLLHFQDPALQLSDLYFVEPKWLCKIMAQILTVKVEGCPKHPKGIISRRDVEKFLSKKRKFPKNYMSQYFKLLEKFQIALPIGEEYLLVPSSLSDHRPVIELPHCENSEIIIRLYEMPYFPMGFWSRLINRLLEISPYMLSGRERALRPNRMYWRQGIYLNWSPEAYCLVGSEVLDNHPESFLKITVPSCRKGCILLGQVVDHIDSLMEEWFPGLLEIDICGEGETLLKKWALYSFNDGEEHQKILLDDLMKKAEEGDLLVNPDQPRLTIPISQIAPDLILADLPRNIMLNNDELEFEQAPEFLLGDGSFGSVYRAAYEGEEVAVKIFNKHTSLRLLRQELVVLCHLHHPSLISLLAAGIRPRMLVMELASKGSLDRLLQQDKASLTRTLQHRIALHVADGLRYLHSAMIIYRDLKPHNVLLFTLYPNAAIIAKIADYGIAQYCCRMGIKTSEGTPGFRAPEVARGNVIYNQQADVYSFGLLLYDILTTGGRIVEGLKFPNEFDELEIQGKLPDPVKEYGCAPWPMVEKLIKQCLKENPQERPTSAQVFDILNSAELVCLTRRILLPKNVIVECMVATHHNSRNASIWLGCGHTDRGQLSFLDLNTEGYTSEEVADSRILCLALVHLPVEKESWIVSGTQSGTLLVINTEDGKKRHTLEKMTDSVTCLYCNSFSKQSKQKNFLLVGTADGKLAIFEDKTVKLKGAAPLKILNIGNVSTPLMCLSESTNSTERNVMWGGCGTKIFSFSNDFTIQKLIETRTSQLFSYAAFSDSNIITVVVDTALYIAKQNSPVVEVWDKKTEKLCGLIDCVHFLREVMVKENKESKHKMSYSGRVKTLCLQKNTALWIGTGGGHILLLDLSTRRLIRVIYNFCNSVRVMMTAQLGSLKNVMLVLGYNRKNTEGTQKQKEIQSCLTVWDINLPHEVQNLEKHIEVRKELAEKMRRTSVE
method.notes: Cellular LRRK2 phosphoserine 935 dephosphorylation spotblot assay in SH-SY5Y cells stably expressing 3xFlag-LRRK2
Assay type: cell-based
applied.conditions: @ 5 μM for 2 h; SH-SY5Y stably expressing LRRK2; pS935/total LRRK2
readout.type: Phosphorylation level relative to solvent (%) (cellular pS935 assay)

compound | value.reported
O=C1c2ccccc2-[n+]2ccc3c([nH]c4ccccc43)c21 [Fascaplysin, synthetic, Fascaplysin] | 45.44

(P) NCCNc1ncc(C(N)=O)c(Nc2cccc(C(F)(F)F)c2)n1 [Syk inhibitor II]
(Q) CN(C)S(=O)(=O)c1ccc2c(c1)/C(=C/c1cc3c([nH]1)CCCC3)C(=O)N2 [SU6656]
(R) O=C(c1ccccc1)c1ccc(N2CCOCC2)cc1O [DNA-PK inhibitor V]
Problem: Order the records by Phosphorylation level relative to solvent (%) (cellular pS935 assay), with each subsequent value no larger than the one before. List each label, following the requested order.
Result: P, R, Q
